Biological target: hNaV1.2 (SCN2A) (Homo sapiens)
Construct: expressed in transfected cells
Test: Use-dependent inhibition of the CNS NaV1.2 sodium channel
Format: cell-based
Settings: HEK-293; % inhibition, use-dependent block at 10 uM; 25 Hz; read-out: Nav1.2 UDB 25 Hz 10 uM
Procedure: HEK-293 cells stably expressing wild-type (WT) hNaV1.2 (SCN2A NCBI # NM_021007.2, SCN1B NCBI # NM_001037.4, SCN2B NCBI # NM_004588.2) were used to record INa. […] Cells are allowed to stabilize for 10 min after establishment of the whole-cell configuration before current is measured. […] Use-dependent block of NaV1.2 peak current is measured during pulse number 20 of a voltage pulse train (0 mV, 20 ms, 20 pulses, 25 Hz) from a holding potential of −120 mV. […]
I'd appreciate it if you could supply inhibition at 10 µM values for the items below.
// note: answer is a bare numeric in %

Q: Look up inhibition at 10 µM for this compound: CC(C)Oc1cc(C(F)(F)F)ccc1-c1ccc2c(c1)CN(Cc1ncccn1)C(=O)O2 [Example 25]
Ans: 72.1

Q: Look up inhibition at 10 µM for this compound: CCCOc1cc(OC(F)(F)F)ccc1-c1ccc2c(c1)CN(Cc1ncccn1)C(=O)O2 [Example 28]
Ans: 58

Q: Look up inhibition at 10 µM for this compound: Cc1csc(CN2Cc3cc(-c4ccc(OC(F)(F)F)cc4Cl)ccc3OC2=O)n1 [Example 57]
Ans: 61.5

Q: Look up inhibition at 10 µM for this compound: Cc1csc(CN2Cc3cc(-c4ccc(OC(F)(F)F)cc4F)ccc3OC2=O)n1 [Example 55]
Ans: 61.8

---

target: wild-type human cardiac sodium channel, hNaV 1.5 (Peak INa) (Homo sapiens); assay: Peak INa screening assay (tonic block and use-dependent block); assay type: cell-based; conditions: read-out: Nav1.5 Peak TB 3 uM, % inhibition, tonic block of peak INa at 3 uM; 0.1 Hz; holding -100 mV
Sequence (Q14524 whole entry): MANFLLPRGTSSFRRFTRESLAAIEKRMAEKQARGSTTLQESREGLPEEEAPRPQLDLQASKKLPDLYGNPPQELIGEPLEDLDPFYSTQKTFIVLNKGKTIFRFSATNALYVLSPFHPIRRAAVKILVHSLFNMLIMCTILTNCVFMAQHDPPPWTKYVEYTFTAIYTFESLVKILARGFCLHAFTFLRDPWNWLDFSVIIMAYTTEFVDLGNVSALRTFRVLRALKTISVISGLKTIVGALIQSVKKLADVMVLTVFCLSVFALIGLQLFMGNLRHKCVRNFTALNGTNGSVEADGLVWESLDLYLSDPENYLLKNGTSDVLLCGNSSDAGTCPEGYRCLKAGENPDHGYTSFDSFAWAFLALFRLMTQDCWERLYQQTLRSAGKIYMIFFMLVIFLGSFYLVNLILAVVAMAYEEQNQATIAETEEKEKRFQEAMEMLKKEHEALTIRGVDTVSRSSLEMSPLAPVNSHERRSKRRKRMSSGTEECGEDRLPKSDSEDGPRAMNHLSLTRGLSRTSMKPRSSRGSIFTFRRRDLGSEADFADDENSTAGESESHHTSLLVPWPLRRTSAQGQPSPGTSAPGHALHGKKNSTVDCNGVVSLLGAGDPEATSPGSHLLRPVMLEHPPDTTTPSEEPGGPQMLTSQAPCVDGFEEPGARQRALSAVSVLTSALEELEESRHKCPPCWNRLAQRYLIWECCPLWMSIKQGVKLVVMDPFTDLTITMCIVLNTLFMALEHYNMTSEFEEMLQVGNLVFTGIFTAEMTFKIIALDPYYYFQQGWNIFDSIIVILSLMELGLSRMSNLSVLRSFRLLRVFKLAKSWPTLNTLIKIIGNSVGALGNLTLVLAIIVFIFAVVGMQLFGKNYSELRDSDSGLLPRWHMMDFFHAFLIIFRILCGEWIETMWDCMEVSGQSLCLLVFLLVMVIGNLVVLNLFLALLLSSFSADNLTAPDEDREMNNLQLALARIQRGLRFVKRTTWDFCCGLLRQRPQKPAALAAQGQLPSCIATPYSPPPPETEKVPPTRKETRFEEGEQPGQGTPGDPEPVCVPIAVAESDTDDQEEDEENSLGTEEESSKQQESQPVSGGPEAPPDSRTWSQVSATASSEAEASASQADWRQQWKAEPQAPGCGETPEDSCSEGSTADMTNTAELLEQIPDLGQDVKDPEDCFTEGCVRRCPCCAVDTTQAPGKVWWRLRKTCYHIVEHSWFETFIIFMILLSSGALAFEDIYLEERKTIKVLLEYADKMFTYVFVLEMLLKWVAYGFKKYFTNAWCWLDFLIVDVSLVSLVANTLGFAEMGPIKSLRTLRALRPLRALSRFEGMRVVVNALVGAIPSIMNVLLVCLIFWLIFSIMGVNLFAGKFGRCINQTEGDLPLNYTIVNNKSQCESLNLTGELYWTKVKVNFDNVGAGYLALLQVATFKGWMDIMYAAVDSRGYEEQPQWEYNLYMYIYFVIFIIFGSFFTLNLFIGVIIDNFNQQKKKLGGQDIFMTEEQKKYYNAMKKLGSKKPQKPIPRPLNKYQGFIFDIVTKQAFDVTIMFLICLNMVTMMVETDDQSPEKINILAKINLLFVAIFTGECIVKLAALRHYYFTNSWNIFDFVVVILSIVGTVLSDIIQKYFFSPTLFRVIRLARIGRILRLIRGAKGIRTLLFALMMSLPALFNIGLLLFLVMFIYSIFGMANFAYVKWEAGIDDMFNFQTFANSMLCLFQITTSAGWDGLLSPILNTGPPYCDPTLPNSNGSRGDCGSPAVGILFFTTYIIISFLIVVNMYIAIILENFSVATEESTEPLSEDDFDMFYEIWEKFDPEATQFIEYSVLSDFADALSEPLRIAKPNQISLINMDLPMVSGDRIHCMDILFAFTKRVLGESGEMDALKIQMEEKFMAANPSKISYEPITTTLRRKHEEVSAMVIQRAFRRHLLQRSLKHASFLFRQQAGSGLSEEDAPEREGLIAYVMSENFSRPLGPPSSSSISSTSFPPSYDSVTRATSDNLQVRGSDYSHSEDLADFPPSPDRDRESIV
Is inhibition at 3 µM at least 20%? Then 1 (yes). If not, 0 (no).

Q: Dear colleague, could you confirm whether COc1cc(OC(F)(F)F)ccc1-c1ccc2c(c1)CN(Cc1cccc(C)n1)C(=O)O2 has inhibition at 3 µM at or above 20%?
Ans: 1 (yes)

Q: Dear colleague, could you confirm whether CC1c2cc(-c3cccc(OC(F)(F)F)c3)ccc2OC(=O)N1Cc1ncccn1 (centres unmarked) has inhibition at 3 µM at or above 20%?
Ans: 0 (no)

Q: Dear colleague, could you confirm whether O=C1Oc2ccc(-c3ccc(OC(F)(F)F)cc3F)cc2CN1Cc1ccccn1 has inhibition at 3 µM at or above 20%?
Ans: 1 (yes)

Q: Dear colleague, could you confirm whether Cc1csc(CN2Cc3cc(-c4ccc(OC(F)(F)F)c(C)c4)ccc3OC2=O)n1 has inhibition at 3 µM at or above 20%?
Ans: 0 (no)

Q: Dear colleague, could you confirm whether Cc1csc(CN2Cc3cc(-c4ccc(OC(F)(F)F)cc4F)ccc3OC2=O)n1 has inhibition at 3 µM at or above 20%?
Ans: 0 (no)

Q: Dear colleague, could you confirm whether Cc1ccnc(CN2Cc3cc(-c4ccc(OC(F)(F)F)cc4C)ccc3OC2=O)n1 has inhibition at 3 µM at or above 20%?
Ans: 1 (yes)

Q: Dear colleague, could you confirm whether Cc1cc(OC(F)(F)F)ccc1-c1ccc2c(c1)CN(Cc1ccccn1)C(=O)O2 has inhibition at 3 µM at or above 20%?
Ans: 0 (no)

Q: Dear colleague, could you confirm whether O=C1Oc2ccc(-c3ccc4c(c3)OC(F)(F)O4)cc2CN1Cc1ncccn1 has inhibition at 3 µM at or above 20%?
Ans: 1 (yes)

Q: Dear colleague, could you confirm whether CC(C)Oc1cc(C(F)(F)F)ccc1-c1ccc2c(c1)CN(Cc1ncccn1)C(=O)O2 has inhibition at 3 µM at or above 20%?
Ans: 1 (yes)

Q: Dear colleague, could you confirm whether COc1cc(OC(F)(F)F)ccc1-c1ccc2c(c1)CN(Cc1nc(C)cs1)C(=O)O2 has inhibition at 3 µM at or above 20%?
Ans: 0 (no)

Q: Dear colleague, could you confirm whether Cc1cnc(CN2Cc3cc(-c4ccc(C(F)(F)F)cc4)ccc3OC2=O)nc1 has inhibition at 3 µM at or above 20%?
Ans: 1 (yes)

Q: Dear colleague, could you confirm whether CC1c2cc(-c3ccc(OC(F)(F)F)cc3)ccc2OC(=O)N1Cc1ncccn1 (centres unmarked) has inhibition at 3 µM at or above 20%?
Ans: 0 (no)

Q: Dear colleague, could you confirm whether Cc1csc(CN2Cc3cc(-c4ccc(OC(F)(F)F)cc4)ccc3OC2=O)n1 has inhibition at 3 µM at or above 20%?
Ans: 0 (no)

Q: Dear colleague, could you confirm whether COc1cc(C(F)(F)F)ccc1-c1ccc2c(c1)CN(Cc1ncc(C)cn1)C(=O)O2 has inhibition at 3 µM at or above 20%?
Ans: 0 (no)

Q: Dear colleague, could you confirm whether O=C1Oc2ccc(-c3ccc(C(F)(F)F)cc3)cc2CN1Cc1ccncc1 has inhibition at 3 µM at or above 20%?
Ans: 0 (no)

---

molecular target: hNaV1.1 (SCN1A) (Homo sapiens); assay: Use-dependent inhibition of the CNS NaV1.1 sodium channel; assay type: cell-based; conditions: % inhibition, use-dependent block at 1 uM; 25 Hz; read-out: Nav1.1 UDB 25 Hz 1 uM
quantity_kind: inhibition at 1 µM (%)
// note: answer is a bare numeric in %

Q: Look up inhibition at 1 µM for this molecule: Cc1csc(CN2Cc3cc(-c4ccc(OC(F)(F)F)c(F)c4)ccc3OC2=O)n1
Ans: 52.7

Q: Look up inhibition at 1 µM for this molecule: O=C1Oc2ccc(-c3ccc(C(F)(F)F)cc3)cc2CN1Cc1ccncc1
Ans: 9.7

Q: Look up inhibition at 1 µM for this molecule: O=C1Oc2ccc(-c3ccc(OC(F)(F)F)cc3F)cc2CN1Cc1ncccn1
Ans: 5.7

Q: Look up inhibition at 1 µM for this molecule: COc1cc(OC(F)(F)F)ccc1-c1ccc2c(c1)CN(Cc1nccc(C)n1)C(=O)O2
Ans: 6

Q: Look up inhibition at 1 µM for this molecule: CCOc1cc(OC(F)(F)F)ccc1-c1ccc2c(c1)CN(Cc1ncccn1)C(=O)O2
Ans: 22.6

Q: Look up inhibition at 1 µM for this molecule: CC1c2cc(-c3ccc(Cl)c(F)c3)ccc2OC(=O)N1Cc1ncccn1 (stereo not drawn)
Ans: 21

Q: Look up inhibition at 1 µM for this molecule: O=C1Oc2ccc(-c3ccc(Cl)c(F)c3)cc2CN1Cc1ncccn1
Ans: 26.7

Q: Look up inhibition at 1 µM for this molecule: COc1cc(C(F)(F)F)ccc1-c1ccc2c(c1)CN(Cc1ncc(C)cn1)C(=O)O2
Ans: 11.5

Q: Look up inhibition at 1 µM for this molecule: CC1c2cc(-c3cccc(OC(F)(F)F)c3)ccc2OC(=O)N1Cc1ncccn1 (stereo not drawn)
Ans: 10.1

Q: Look up inhibition at 1 µM for this molecule: O=C1Oc2ccc(-c3ccc(OC(F)(F)F)cc3)cc2CN1CCc1ncccn1
Ans: 17.3

Q: Look up inhibition at 1 µM for this molecule: O=C1Oc2ccc(-c3ccc(OC(F)(F)F)cc3)cc2CN1Cc1ncccn1
Ans: 42.6

Q: Look up inhibition at 1 µM for this molecule: Cc1cc(OC(F)(F)F)ccc1-c1ccc2c(c1)CN(Cc1ccccn1)C(=O)O2
Ans: 5.2

Q: Look up inhibition at 1 µM for this molecule: Cc1ccnc(CN2Cc3cc(-c4ccc(C(F)(F)F)cc4)ccc3OC2=O)n1
Ans: 49.7

Q: Look up inhibition at 1 µM for this molecule: CCCOc1cc(OC(F)(F)F)ccc1-c1ccc2c(c1)CN(Cc1ncccn1)C(=O)O2
Ans: 25.2

---

target: hNaV1.2 (SCN2A) (Homo sapiens, UniProt Q99250); construct: expressed in transfected cells; assay: Use-dependent inhibition of the CNS NaV1.2 sodium channel; format: cell-based; conditions: HEK-293; % inhibition, use-dependent block at 10 uM; 25 Hz; read-out: Nav1.2 UDB 25 Hz 10 uM
Sequence (Q99250 whole entry): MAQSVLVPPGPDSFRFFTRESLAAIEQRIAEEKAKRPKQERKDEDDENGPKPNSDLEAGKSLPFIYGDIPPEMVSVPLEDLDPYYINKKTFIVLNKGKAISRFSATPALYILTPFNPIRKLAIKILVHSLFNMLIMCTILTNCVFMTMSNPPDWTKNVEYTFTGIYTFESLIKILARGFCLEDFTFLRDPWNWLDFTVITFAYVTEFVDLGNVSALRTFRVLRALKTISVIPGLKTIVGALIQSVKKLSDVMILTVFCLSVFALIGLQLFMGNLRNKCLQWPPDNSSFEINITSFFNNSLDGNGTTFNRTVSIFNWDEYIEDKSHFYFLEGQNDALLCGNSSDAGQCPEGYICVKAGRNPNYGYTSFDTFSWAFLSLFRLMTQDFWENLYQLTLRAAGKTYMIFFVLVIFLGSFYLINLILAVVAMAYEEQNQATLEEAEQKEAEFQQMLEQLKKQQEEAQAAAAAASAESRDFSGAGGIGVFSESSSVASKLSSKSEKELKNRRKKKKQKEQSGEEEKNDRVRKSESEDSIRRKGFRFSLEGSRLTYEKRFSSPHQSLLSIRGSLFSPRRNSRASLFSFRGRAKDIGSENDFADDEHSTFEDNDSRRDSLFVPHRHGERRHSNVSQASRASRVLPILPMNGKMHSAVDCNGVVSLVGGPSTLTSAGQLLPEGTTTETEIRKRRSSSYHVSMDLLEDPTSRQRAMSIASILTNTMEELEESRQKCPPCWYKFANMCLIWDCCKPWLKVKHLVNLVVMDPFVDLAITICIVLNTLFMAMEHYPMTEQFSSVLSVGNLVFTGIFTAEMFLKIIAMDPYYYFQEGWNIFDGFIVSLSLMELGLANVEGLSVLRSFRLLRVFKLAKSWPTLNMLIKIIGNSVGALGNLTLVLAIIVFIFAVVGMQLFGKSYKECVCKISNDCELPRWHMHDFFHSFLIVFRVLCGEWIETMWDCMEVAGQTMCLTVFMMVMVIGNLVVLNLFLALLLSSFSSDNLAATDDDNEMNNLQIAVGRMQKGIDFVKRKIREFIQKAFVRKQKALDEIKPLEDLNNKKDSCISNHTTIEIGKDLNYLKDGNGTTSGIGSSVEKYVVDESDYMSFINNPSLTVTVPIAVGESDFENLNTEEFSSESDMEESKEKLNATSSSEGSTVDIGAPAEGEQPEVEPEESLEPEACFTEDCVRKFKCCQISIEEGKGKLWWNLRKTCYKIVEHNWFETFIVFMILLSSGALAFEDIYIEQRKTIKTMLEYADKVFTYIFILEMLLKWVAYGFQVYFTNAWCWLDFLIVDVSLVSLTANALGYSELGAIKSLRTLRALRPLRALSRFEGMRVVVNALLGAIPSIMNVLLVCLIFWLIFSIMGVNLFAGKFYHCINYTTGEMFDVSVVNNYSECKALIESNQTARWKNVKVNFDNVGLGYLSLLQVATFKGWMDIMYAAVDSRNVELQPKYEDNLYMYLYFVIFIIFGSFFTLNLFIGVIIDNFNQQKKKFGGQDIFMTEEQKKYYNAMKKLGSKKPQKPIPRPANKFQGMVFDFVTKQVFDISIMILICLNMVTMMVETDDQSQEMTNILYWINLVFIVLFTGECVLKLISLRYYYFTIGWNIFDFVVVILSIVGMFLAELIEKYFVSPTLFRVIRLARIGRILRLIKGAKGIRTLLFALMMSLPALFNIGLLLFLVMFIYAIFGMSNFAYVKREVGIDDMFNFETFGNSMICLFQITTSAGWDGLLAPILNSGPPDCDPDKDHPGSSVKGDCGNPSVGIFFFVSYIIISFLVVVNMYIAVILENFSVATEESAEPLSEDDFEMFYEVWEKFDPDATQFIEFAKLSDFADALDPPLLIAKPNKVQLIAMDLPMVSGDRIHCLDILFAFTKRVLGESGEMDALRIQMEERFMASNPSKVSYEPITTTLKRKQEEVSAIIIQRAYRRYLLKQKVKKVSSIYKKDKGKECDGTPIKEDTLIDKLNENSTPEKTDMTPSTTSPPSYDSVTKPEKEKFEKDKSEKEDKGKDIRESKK
Sequence (Q07699 19-218 partner): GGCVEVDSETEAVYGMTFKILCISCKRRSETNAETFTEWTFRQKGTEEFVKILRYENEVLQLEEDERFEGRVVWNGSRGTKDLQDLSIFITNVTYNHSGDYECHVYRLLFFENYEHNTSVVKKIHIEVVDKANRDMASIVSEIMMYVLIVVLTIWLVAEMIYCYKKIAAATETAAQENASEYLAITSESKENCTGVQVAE
Sequence (O60939 30-215 partner): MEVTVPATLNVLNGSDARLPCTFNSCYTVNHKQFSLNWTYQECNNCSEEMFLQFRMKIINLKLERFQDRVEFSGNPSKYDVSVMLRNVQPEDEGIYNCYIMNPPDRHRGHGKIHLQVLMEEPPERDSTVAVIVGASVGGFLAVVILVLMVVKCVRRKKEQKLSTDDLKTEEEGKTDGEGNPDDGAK
I'd appreciate it if you could supply inhibition at 10 µM values for the items below.
// note: answer is a bare numeric in %

Q: Look up inhibition at 10 µM for this molecule: CCOc1cc(C(F)(F)F)ccc1-c1ccc2c(c1)CN(Cc1ncccn1)C(=O)O2 [Example 35]
Ans: 75.1

Q: Look up inhibition at 10 µM for this molecule: Cc1ccnc(CN2Cc3cc(-c4ccc(OC(F)(F)F)cc4C)ccc3OC2=O)n1 [Example 33]
Ans: 55.2

Q: Look up inhibition at 10 µM for this molecule: Cc1ccnc(CN2Cc3cc(-c4ccc(OC(F)(F)F)cc4)ccc3OC2=O)n1 [Example 29]
Ans: 81.7

Q: Look up inhibition at 10 µM for this molecule: O=C1Oc2ccc(-c3ccc(C(F)(F)F)cc3)cc2CN1CCc1ncccn1 [Example 17]
Ans: 56.6

Q: Look up inhibition at 10 µM for this molecule: O=C1Oc2ccc(-c3ccc(OC(F)(F)F)cc3)cc2CN1Cc1ccccn1 [Example 20]
Ans: 69.8
